Numbers sourced from patent US20210252175A1.

molecular target: Aβ pathological aggregates present in the human AD insoluble fractions (Homo sapiens); construct: "4.7 g of frontal lobe tissue from post-mortem brain of one Alzheimer's disease (AD) patient"; assay: Radio-binding competition assay on human AD insoluble fraction; conditions: measurement D; radioligand [3H] Example 47 of WO2017/153601 at 7 nM; read-out: Ki on human AD-Insoluble Fraction, measurement D
Sequence (P05067 whole entry): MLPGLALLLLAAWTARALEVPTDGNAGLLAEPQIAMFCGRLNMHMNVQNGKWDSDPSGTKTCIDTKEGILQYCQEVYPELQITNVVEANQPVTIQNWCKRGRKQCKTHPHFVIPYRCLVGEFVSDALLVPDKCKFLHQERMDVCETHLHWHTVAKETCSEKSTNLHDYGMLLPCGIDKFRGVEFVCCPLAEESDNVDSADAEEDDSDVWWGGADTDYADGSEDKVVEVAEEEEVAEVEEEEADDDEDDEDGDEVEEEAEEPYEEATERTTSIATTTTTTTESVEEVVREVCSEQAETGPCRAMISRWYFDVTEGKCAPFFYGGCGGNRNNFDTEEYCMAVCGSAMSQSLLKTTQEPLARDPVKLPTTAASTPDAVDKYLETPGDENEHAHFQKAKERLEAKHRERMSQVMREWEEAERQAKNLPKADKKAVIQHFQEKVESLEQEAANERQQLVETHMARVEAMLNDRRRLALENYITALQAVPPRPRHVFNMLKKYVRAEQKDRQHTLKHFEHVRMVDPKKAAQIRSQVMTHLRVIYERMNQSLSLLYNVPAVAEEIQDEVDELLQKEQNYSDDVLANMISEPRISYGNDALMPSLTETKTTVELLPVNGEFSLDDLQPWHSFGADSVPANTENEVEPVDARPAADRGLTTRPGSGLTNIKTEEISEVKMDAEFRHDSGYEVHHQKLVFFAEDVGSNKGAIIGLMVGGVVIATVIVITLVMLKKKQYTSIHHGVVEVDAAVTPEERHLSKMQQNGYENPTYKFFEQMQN
Each record here notes measured Ki.

Guide cases for Ki, answers given:
COMPOUND STRUCTURE STRING: CN1CCN(c2ncc3nc(-c4ccc(N5CCC[C@H](F)C5)nc4)sc3n2)C(=O)C1
Ki: > 0.5 µM

COMPOUND STRUCTURE STRING: CN1CCN(c2cc3sc(-c4ccc(N5CC[C@H](F)C5)nc4)nc3cn2)C(=O)C1
Ki: > 0.5 µM

Next molecule, please.
QUERY: Given the molecule CN1CCN(c2ncc3nc(-c4ccc(N5CCC[C@@H](F)C5)nc4)sc3n2)C(=O)C1 , what is its reported Ki?
RESULT: > 0.5 µM

###

biological target: Recombinant human full-length wild-type aSyn fibrils (Homo sapiens, UniProt P37840); construct: Recombinant human full-length wild-type aSyn bacterially expressed; purchased rPeptide, US; assay: Radio-binding competition assay on recombinant aSyn fibrils; settings: comparison of Ki values of Table 9
RECORDED METRIC: binding to aSyn fibrils in comparison to Examples 70 and 71 of WO2017/153601

Some molecules with known binding to aSyn fibrils in comparison to Examples 70 and 71 of WO2017/153601 results, for comparison:
MOLECULE: CNc1ncc(-c2nc3cnc(N4CCN(C)CC4=O)cc3s2)cc1F [Example 3B]
RESULT: improved
//
MOLECULE: CN1CCN(c2cc3sc(-c4ccc(N5CC(F)C5)nc4)nc3cn2)C(=O)C1 [Example 3A]
RESULT: similar
//
MOLECULE: CN1CCN(c2ncc3nc(-c4ccc(N5CC(F)C5)nc4)sc3n2)C(=O)C1 [Example 7A]
RESULT: similar
//
MOLECULE: CN1CCN(c2cc3sc(-c4cnc(N5CC[C@@H](F)C5)nc4)nc3cn2)C(=O)C1 [Example 3D]
RESULT: improved
//
MOLECULE: CN1CCN(c2ncc3nc(-c4ccc(N5CCC[C@H](F)C5)nc4)sc3n2)C(=O)C1 [Example 7C]
RESULT: improved

Lab note: next molecule to report on.
QUERY: Please report the recorded binding to aSyn fibrils in comparison to Examples 70 and 71 of WO2017/153601 for CN1CCN(c2ncc3nc(-c4ccc(N5CCC[C@@H](F)C5)nc4)sc3n2)C(=O)C1 [Example 7B] .
RESULT: improved
